# Test system: NK-92 (IL-2 2.5 ng/mL)
# method: percent inhibition of viability; higher = more inhibition
# condition: 72 h; 250 nM
property label: percent inhibition of viability (%)

>>> result_number("OCCn1cc(-c2cnc3nnn(Cc4ccc5ncccc5c4)c3n2)cn1 (max concentration tested 2500 nM)")
11.9
>>> result_number("CCCNC(=O)Nc1ccc(Oc2ncnc3cc(OC)c(OC)cc23)cc1Cl [KRN-633] (max concentration tested 2500 nM)")
16.5
>>> result_number("Nc1nc(NC2CC2)cc(-c2cccc(Cl)c2Cl)n1 [TH588] (max concentration tested 25000 nM)")
2.79
>>> result_number("Cc1cc(Nc2ncc(Cl)c(Nc3ccccc3S(=O)(=O)C(C)C)n2)c(OC(C)C)cc1C1CCNCC1 [Ceritinib] (max concentration tested 2500 nM)")
-14.7

----------
Listed here are molecules together with their documented percent inhibition of viability.
# Tested on: NK-YS (IL-2 2.5 ng/mL)
# method: percent inhibition of viability; higher = more inhibition
# condition: 72 h; 10 nM
property label: percent inhibition of viability (%)

>>> result_number("CO[C@@]12[C@H](COC(N)=O)C3=C(C(=O)C(C)=C(N)C3=O)N1C[C@@H]1N[C@@H]12 [Mitomycin C] (max concentration tested 10000 nM)")
-3.78
>>> result_number("CC(C)N(CCCNC(=O)Nc1ccc(C(C)(C)C)cc1)C[C@H]1O[C@@H](n2cc(Br)c3c(N)ncnc32)[C@H](O)[C@@H]1O [SGC0946] (max concentration tested 10000 nM)")
-0.39
>>> result_number("COc1cc2nccc(Oc3ccc(NC(=O)C4(C(=O)Nc5ccc(F)cc5)CC4)cc3)c2cc1OC [Cabozantinib] (max concentration tested 1000 nM)")
1.67
>>> result_number("Clc1ccccc1C(c1ccccc1)(c1ccccc1)n1cccn1 [TRAM-34] (max concentration tested 1000 nM)")
2.82
>>> result_number("C[C@@H]1CN(Cc2ccc(F)cc2)[C@@H](C)CN1C(=O)c1cc2c(C(=O)C(=O)N(C)C)cn(C)c2cc1Cl [Talmapimod] (max concentration tested 10000 nM)")
-2.3
>>> result_number("COc1ccccc1S(=O)(=O)Nc1ccc2c(c1)CN(C)C(=O)N2 [PFI-1] (max concentration tested 10000 nM)")
-3.35

----------
# System: SNK-6 (IL-2 2.5 ng/mL)
# method: drug sensitivity score (DSS) (DSS units); higher = more sensitive; extreme values may be limits of the assay
# condition: 72 h
Decide by drug sensitivity score: equal to or exceeding 10 means label 1, less means label 0.

>>> group_label("C[C@@H](Oc1cc(-c2cnn(C3CCNCC3)c2)cnc1N)c1c(Cl)ccc(F)c1Cl [Crizotinib] (max concentration tested 1000 nM)")
"label 0"
>>> group_label("C[C@]12CC[C@H](O)CC1=CC[C@@H]1[C@@H]2CC[C@]2(C)C(c3cccnc3)=CC[C@@H]12 [Abiraterone] (max concentration tested 5000 nM)")
"label 0"
>>> group_label("Cn1cc(CNCC2CCN(c3ncc(C(=O)NO)cn3)CC2)c2ccccc21 [Quisinostat] (max concentration tested 1000 nM)")
"label 1"
>>> group_label("CS(=O)(=O)c1ccc(C2=C(c3ccccc3)C(=O)OC2)cc1 [Rofecoxib] (max concentration tested 10000 nM)")
"label 0"
>>> group_label("CC(C)n1nc(-c2ccc3oc(N)nc3c2)c2c(N)ncnc21 [INK128] (max concentration tested 1000 nM)")
"label 1"
>>> group_label("COc1cc2c(cc1-c1c(C)noc1C)ncc1[nH]c(=O)n([C@H](C)c3ccccn3)c12 [I-BET151] (max concentration tested 10000 nM)")
"label 1"

----------
# Test system: NK-92 (IL-2 2.5 ng/mL)
# method: percent inhibition of viability; higher = more inhibition
# condition: 72 h; 10 nM
Listed here are compounds together with their documented percent inhibition of viability.
property label: percent inhibition of viability (%)

>>> result_number("CCC/C=C/C=C/C(=O)O[C@H]1/C(=C/C(=O)OC)C[C@H]2C[C@H]([C@@H](C)O)OC(=O)C[C@H](O)C[C@@H]3C[C@H](OC(C)=O)C(C)(C)[C@](O)(C[C@@H]4C/C(=C/C(=O)OC)C[C@H](/C=C/C(C)(C)[C@]1(O)O2)O4)O3 [Bryostatin 1] (max concentration tested 100 nM)")
103
>>> result_number("C[C@@H](Oc1ccc2[nH]nc(/C=C/c3cnn(CCO)c3)c2c1)c1c(Cl)cncc1Cl (max concentration tested 1000 nM)")
4.63

----------
# Test system: IMC-1 (IL-2 20 ng/mL)
# method: drug sensitivity score (DSS) (DSS units); higher = more sensitive; extreme values may be limits of the assay
# condition: 72 h
property label: drug sensitivity score

>>> result("CS(=O)(=O)c1ccc(C2=C(c3ccccc3)C(=O)OC2)cc1 [Rofecoxib] (max concentration tested 10000 nM)")
0
>>> result("CON(C)C(=O)N1N=C(c2cc(F)ccc2F)S[C@@]1(CCCN)c1ccccc1 [Filanesib] (max concentration tested 1000 nM)")
30.5
>>> result("Cc1c(NC(=O)OC[C@@H]2COCCN2)cn2ncnc(Nc3ccc4c(cnn4Cc4cccc(F)c4)c3)c12 (max concentration tested 10000 nM)")
2.97

----------
# Test system: KHYG-1 (IL-2 2.5 ng/mL)
# method: percent inhibition of viability; higher = more inhibition
# condition: 72 h; 1 nM
Listed here are compounds together with their documented percent inhibition of viability.
property label: percent inhibition of viability (%)

>>> result_number("N[C@@H]1CCCN(c2c(/C=C3\\SC(=O)NC3=O)cccc2-c2ccccc2)C1 [AZD1208] (max concentration tested 10000 nM)")
-4.34
>>> result_number("Nc1ccn([C@@H]2O[C@H](CO)[C@@H](O)C2(F)F)c(=O)n1 [Gemcitabine] (max concentration tested 1000 nM)")
12.5
>>> result_number("CNCc1ccc(-c2[nH]c3cc(F)cc4c3c2CCNC4=O)cc1 [Rucaparib] (max concentration tested 10000 nM)")
-3.58
>>> result_number("O=C(c1cc(Cc2n[nH]c(=O)c3ccccc23)ccc1F)N1CCN(C(=O)C2CC2)CC1 [Olaparib] (max concentration tested 10000 nM)")
-5.18
>>> result_number("Cc1ncc(-c2ccnc(Nc3ccc(S(C)(=O)=O)cc3)n2)n1C(C)C [AZD-5438] (max concentration tested 10000 nM)")
0.77
>>> result_number("O=C(NC1CCNCC1)c1n[nH]cc1NC(=O)c1c(Cl)cccc1Cl [AT7519] (max concentration tested 10000 nM)")
-2.18

----------
Listed here are molecules together with their documented percent inhibition of viability.
# Tested on: YT (IL-2 2.5 ng/mL)
# method: percent inhibition of viability; higher = more inhibition
# condition: 72 h; 1 nM
property label: percent inhibition of viability (%)

>>> result_number("CC[C@@]1(O)C(=O)OCc2c1cc1n(c2=O)Cc2cc3c(CN(C)C)c(O)ccc3nc2-1 [Topotecan] (max concentration tested 10000 nM)")
-6.41
>>> result_number("CC[C@H](CO)Nc1nc(NCc2ccccc2)c2ncn(C(C)C)c2n1 [Seliciclib] (max concentration tested 10000 nM)")
2.72
>>> result_number("O=NN(CCCl)C(=O)NC1CCCCC1 [Lomustine] (max concentration tested 10000 nM)")
-3.7
>>> result_number("Cc1cn(-c2cc(NC(=O)c3ccc(C)c(Nc4nccc(-c5cccnc5)n4)c3)cc(C(F)(F)F)c2)cn1 [Nilotinib] (max concentration tested 10000 nM)")
1.35
>>> result_number("CCCCCOC(=O)Nc1nc(=O)n([C@@H]2O[C@H](C)[C@@H](O)[C@H]2O)cc1F [Capecitabine] (max concentration tested 10000 nM)")
-3.7
>>> result_number("COc1cc2c(N3CCN(C(=O)Nc4ccc(OC(C)C)cc4)CC3)ncnc2cc1OCCCN1CCCCC1 [Tandutinib] (max concentration tested 1000 nM)")
0.08
>>> result_number("CO[C@@H]1[C@H](N(C)C(=O)c2ccccc2)C[C@H]2O[C@]1(C)n1c3ccccc3c3c4c(c5c6ccccc6n2c5c31)C(=O)NC4 [Midostaurin] (max concentration tested 10000 nM)")
4.08
>>> result_number("Cc1c(Cn2c(C)nc3c(C(=O)O)cc(N4CCOCC4)cc32)cccc1C(F)(F)F (max concentration tested 10000 nM)")
1
>>> result_number("Cc1ccc(C(=O)N(CCCN)[C@@H](c2oc3cc(Cl)ccc3c(=O)c2Cc2ccccc2)C(C)C)cc1 (max concentration tested 100 nM)")
-3.98
>>> result_number("COc1cc2ncnc(Oc3cccc(NC(=O)Nc4cc(C(C)(C)C(F)(F)F)on4)c3)c2cc1OC (max concentration tested 10000 nM)")
-6.09
>>> result_number("CS(=O)(=O)N1CCc2c(-c3cnc(N)nc3)nc(N3CCOCC3)nc21 (max concentration tested 10000 nM)")
2.76
>>> result_number("C[C@]12C=CC(=O)C=C1CC[C@@H]1[C@@H]2C(=O)C[C@@]2(C)[C@H]1CC[C@]2(O)C(=O)CO [Prednisone] (max concentration tested 10000 nM)")
1.47

Value source: the supplement of paper PMC5908809
